Here's a roundup of Ki values tested on Rat VR1 (Rattus norvegicus), taken from various published works.
Sequence (O35433 whole entry): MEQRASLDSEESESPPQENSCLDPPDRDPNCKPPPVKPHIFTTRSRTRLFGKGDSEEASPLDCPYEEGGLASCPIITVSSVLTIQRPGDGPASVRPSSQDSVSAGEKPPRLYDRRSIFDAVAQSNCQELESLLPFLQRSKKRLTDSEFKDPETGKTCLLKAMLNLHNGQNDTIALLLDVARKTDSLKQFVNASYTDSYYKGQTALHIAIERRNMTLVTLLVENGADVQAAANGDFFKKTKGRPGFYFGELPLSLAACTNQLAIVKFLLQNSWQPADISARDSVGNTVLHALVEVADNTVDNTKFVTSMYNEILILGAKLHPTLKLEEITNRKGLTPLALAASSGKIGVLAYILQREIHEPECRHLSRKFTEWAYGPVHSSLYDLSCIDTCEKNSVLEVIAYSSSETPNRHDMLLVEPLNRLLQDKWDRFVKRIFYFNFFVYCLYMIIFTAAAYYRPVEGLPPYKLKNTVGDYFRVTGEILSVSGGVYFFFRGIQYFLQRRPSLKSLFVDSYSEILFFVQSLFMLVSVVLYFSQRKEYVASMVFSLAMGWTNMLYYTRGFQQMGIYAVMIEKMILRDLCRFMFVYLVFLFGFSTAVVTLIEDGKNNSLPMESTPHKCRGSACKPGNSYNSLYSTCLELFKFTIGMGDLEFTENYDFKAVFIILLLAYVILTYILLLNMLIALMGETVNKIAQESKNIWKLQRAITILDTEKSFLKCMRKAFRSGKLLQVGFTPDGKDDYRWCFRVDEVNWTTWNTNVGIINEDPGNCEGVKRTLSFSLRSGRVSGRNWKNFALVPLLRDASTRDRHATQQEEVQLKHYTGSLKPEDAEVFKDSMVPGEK

Please review the entries below; each comes with its answer.
* CC1=C(/C=C/C(=O)Nc2cccc3cnccc23)C(C)(C)CCC1Oc1ccc(F)cc1 (centres unmarked) | 14.8 nM
* CC1=C(/C=C/C(=O)Nc2cccc3cnccc23)C(C)(C)CCC1Oc1ccccc1 (centres unmarked) | 4.93 nM
* COc1cc(CNC(=O)NCc2ccc(C(C)(C)C)cc2)c(Cl)cc1OCCO | 175 nM
* O=C(Nc1cccc2c[n+]([O-])ccc12)NC1CCc2cc(Cl)ccc2C1Cc1ccccc1 (centres unmarked) | 2840 nM

Report Ki on Rat VR1 (Rattus norvegicus) for this entry: COc1cc(CNC(=O)NCc2ccc(C(F)(F)F)cc2)c(-c2cccnc2)cc1OCC(O)CO (centres unmarked)
172 nM

System Rat VR1 (Rattus norvegicus). Read-out Ki. Item O=C(Nc1cccc2cnccc12)NC1CCc2ccccc2C12Cc1ccccc1C2 (centres unmarked) . Report value.
1700 nM
